Assay protocol: qHTS RealTime-Glo MT Cell Viability Assay in HEK293 cells - 32 hour (AID 1224868); also: nearly all actives have a fitted effect of over 50% in size
Condition parameters: RealTime-Glo luminescence; series mostly up to 76.8 µM
Inconclusive results are not listed. Active and inactive are the calls of the source. Calls follow the shape of the dose curve; as a rule, active = well fitted cell-killing curve with a large enough effect in the repeat runs; inconclusive = weak or mixed curves, or effect the other way; inactive = flat fitted curve, though single readings scatter.
Outcomes: active, inactive

[[record]]
compound = "C=CC(=O)NC(C)(C)CC(C)=O"
assigned_class = "inactive"

[[record]]
compound = "c1ccc2c(c1)-c1cccc3cccc-2c13"
assigned_class = "inactive"

[[record]]
compound = "Cc1cccc(C)c1NC1=NCCCS1"
assigned_class = "inactive"

[[record]]
compound = "CCCCC(CC)CO[N+](=O)[O-] (centres undefined)"
assigned_class = "inactive"

[[record]]
compound = "O=C(Cl)OCCOCCOC(=O)Cl"
assigned_class = "inactive"

[[record]]
compound = "O=C(O)c1ccc(=O)[nH]c1"
assigned_class = "inactive"

[[record]]
compound = "Cc1ccccc1"
assigned_class = "inactive"

[[record]]
compound = "CC(C)CCON=O"
assigned_class = "inactive"

[[record]]
compound = "CCOC(=O)C1OC1(C)c1ccccc1 (centres undefined)"
assigned_class = "inactive"

[[record]]
compound = "CC(Cl)C(=O)O (centres undefined)"
assigned_class = "inactive"

[[record]]
compound = "CCOc1cccc(C2(N3CCN(c4ccccc4)CC3)CCC(C)CC2)c1 (centres undefined)"
assigned_class = "inactive"

[[record]]
compound = "CCCCCCCCCCCCN=C(N)N"
assigned_class = "active"

[[record]]
compound = "CC(CC(C(N)=O)(c1ccccc1)c1ccccc1)N(C)C (centres undefined)"
assigned_class = "inactive"

[[record]]
compound = "COc1ccc2c(c1OC)C(=O)O[C@H]2[C@@H]1c2cc3c(cc2CCN1C)OCO3"
assigned_class = "inactive"

[[record]]
compound = "O=CC=O"
assigned_class = "inactive"

[[record]]
compound = "CCC(=O)O[C@@H]1C=C2CCC3C(CCC4(C)C3CC[C@@H]4OC(=O)CC)C2CC1 (some centres undefined)"
assigned_class = "inactive"

[[record]]
compound = "CC(C)C1(C)N=C(c2ncccc2C(=O)O)NC1=O (centres undefined)"
assigned_class = "inactive"

[[record]]
compound = "CCCCC1C(=O)NC(=O)N(C2CCCCC2)C1=O (centres undefined)"
assigned_class = "inactive"

[[record]]
compound = "COC1CC(=C(c2cccs2)c2cccs2)C[N+](C)(C)C1 (centres undefined)"
assigned_class = "inactive"

[[record]]
compound = "CCOP(=S)(OCC)SCSc1cc(Cl)ccc1Cl"
assigned_class = "inactive"

[[record]]
compound = "C[C@]12CC[C@H]3[C@@H](CCC4=CC(=O)CC[C@@H]43)[C@@H]1CC[C@@H]2OC(=O)CCc1ccccc1"
assigned_class = "inactive"

[[record]]
compound = "C[N+]1(CCF)[C@@H]2CC[C@H]1CC(OC(=O)C(O)(c1ccccc1)c1ccccc1)C2 (some centres undefined)"
assigned_class = "inactive"

[[record]]
compound = "CCOC(C(=O)OCCN(C)C)(c1ccccc1)c1ccccc1"
assigned_class = "inactive"

[[record]]
compound = "C=CCSSCC=C"
assigned_class = "inactive"

[[record]]
compound = "Clc1ccc(Cl)c(Cl)c1"
assigned_class = "inactive"

[[record]]
compound = "CCC(C)(C)O"
assigned_class = "inactive"

[[record]]
compound = "C=CC(=O)OCC"
assigned_class = "inactive"

[[record]]
compound = "O=C(Cc1ccccc1)OCCc1ccccc1"
assigned_class = "inactive"

[[record]]
compound = "O=C(O)c1cc(Cl)ccc1Cl"
assigned_class = "inactive"

